Record: compiled IC50 on USP19 (Homo sapiens (Human)) from multiple reports.

Record excerpt, results attached:
{"compound": "C[C@H](CC1CCCCC1)C(=O)N1CCC(O)(Cn2cc(C(=O)N(C)C)c(-c3ccc(CO)cc3)cc2=O)C2(CCCC2)C1 (some centres unmarked)", "IC50": "< 500 nM"}
{"compound": "C[C@H](CC1CCCCC1)C(=O)N1CCC(O)(Cn2cnc(-c3cn[nH]c3)cc2=O)C(C)(C)C1 (some centres unmarked)", "IC50": "5000 to 50000 nM"}
{"compound": "CN(C)C(=O)c1cn(C[C@]2(O)CCN(C(=O)C(CC(F)(F)F)CC(F)(F)F)CC23CCCC3)c(=O)cc1-c1ccccc1", "IC50": "500 to 5000 nM"}
{"compound": "COc1ccc(C2CNCCN2C(=O)N2CCC(O)(Cn3cnc(-c4ccccc4)cc3=O)C3(CCCC3)C2)cc1 (centres unmarked)", "IC50": "5000 to 50000 nM"}

Test item "O=C(c1cn(C[C@]2(O)CCN(C(=O)[C@H](CO)CC(F)(F)F)CC23CCCC3)c(=O)cc1-c1ccccc1)N1CCNCC1" ; USP19 (Homo sapiens (Human)); reported IC50 was < 500 nM

Test item O=C(N1CC[C@@](O)(Cn2cnc(-c3ccccc3)cc2=O)C2(CCCC2)C1)N1CCNCC1c1ccsc1 (some centres unmarked) ; USP19 (Homo sapiens (Human)); reported IC50 was < 500 nM

Test item "O=C(N1CC[C@@](O)(Cn2cnc(-c3ccccc3F)cc2=O)C2(CCCC2)C1)N1CCNC[C@H]1c1cccc(F)c1" ; USP19 (Homo sapiens (Human)); reported IC50 was < 500 nM

Test item "CC1(C)CN(C(=O)N2CCOC[C@H]2c2ccccc2)CC[C@@]1(O)Cn1cnc(-c2ccccc2)cc1=O" ; USP19 (Homo sapiens (Human)); reported IC50 was < 500 nM

Test item CC1(C)CN(C(=O)[C@H](CO)CC2CCC2)CCC1(O)Cn1cnc(-c2ccccc2F)cc1=O (some centres unmarked) ; USP19 (Homo sapiens (Human)); reported IC50 was 500 to 5000 nM

---

Record: compiled IC50 on USP19 (Homo sapiens (Human), UniProt O94966) from multiple reports.
Sequence (O94966 whole entry): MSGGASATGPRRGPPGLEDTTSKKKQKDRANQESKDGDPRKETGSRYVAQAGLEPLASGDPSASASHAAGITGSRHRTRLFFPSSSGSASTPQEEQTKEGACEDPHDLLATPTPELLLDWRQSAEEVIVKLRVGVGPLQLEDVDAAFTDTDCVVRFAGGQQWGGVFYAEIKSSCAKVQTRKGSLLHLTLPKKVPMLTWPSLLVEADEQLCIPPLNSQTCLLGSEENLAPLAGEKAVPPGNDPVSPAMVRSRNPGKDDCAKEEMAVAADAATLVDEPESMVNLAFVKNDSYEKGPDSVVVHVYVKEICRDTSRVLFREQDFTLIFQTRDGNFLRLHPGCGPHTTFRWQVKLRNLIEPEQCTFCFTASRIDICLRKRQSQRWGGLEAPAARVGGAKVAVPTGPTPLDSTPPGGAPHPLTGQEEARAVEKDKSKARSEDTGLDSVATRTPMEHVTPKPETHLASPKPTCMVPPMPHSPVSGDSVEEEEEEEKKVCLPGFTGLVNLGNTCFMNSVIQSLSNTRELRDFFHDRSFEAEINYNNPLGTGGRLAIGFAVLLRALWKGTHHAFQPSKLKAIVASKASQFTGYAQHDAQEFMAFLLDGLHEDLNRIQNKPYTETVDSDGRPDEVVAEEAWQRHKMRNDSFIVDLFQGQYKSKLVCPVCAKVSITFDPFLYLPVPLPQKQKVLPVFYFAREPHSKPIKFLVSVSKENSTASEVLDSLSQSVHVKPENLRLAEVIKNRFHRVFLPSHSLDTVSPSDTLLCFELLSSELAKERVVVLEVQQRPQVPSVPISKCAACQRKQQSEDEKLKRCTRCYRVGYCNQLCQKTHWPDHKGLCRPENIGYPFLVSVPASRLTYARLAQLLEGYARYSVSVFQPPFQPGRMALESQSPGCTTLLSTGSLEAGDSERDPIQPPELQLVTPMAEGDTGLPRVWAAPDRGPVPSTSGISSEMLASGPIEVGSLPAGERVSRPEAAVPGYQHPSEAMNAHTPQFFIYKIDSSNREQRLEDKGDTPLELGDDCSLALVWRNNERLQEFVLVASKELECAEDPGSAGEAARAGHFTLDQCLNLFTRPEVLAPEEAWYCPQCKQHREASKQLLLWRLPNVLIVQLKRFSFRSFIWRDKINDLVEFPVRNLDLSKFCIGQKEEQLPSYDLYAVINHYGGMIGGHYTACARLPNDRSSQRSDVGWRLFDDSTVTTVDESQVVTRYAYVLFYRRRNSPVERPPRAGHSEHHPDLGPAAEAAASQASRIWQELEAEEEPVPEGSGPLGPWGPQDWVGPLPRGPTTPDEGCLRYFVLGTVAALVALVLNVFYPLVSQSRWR

Record excerpt, results attached:
{"compound": "N#Cc1ccc(CNC(=O)N2CC[C@@](O)(Cn3cnc(-c4ccccc4)cc3=O)C3(CCCC3)C2)cc1", "study-system": "USP19 (Homo sapiens (Human), UniProt O94966)", "IC50": "50 to 250 µM"}
{"compound": "C[C@H](CC(=O)N1C[C@H]2CC[C@@H](C1)C2(O)Cn1cnc(-c2ccccc2F)cc1=O)c1ccccc1 (stereo partly shown)", "study-system": "USP19 (Homo sapiens (Human), UniProt O94966)", "IC50": "5 to 50 µM"}
{"compound": "CC(CC(=O)N1CCC(O)(Cn2cnc(-c3ccccc3F)cc2=O)C(C)(C)C1)C1CCCCC1 (stereo not shown)", "study-system": "USP19 (Homo sapiens (Human), UniProt O94966)", "IC50": "0.5 to 5 µM"}
{"compound": "Cc1nc([C@@H]2CCCN2C(=O)N2CCC(O)(Cn3cnc(-c4ccccc4)cc3=O)C3(CCCC3)C2)n[nH]1 (stereo partly shown)", "study-system": "USP19 (Homo sapiens (Human), UniProt O94966)", "IC50": "50 to 250 µM"}
{"compound": "C[C@@H](CC(=O)N1CCC(O)(Cn2cc(C(=O)N(C)C)c(-c3ccccc3)cc2=O)C2(CCCC2)C1)c1ccccc1 (stereo partly shown)", "study-system": "USP19 (Homo sapiens (Human), UniProt O94966)", "IC50": "5 to 50 µM"}
{"compound": "N[C@H]1CCN(C(=O)N2CC[C@@](O)(Cn3cnc(-c4ccccc4)cc3=O)C3(CCCC3)C2)[C@H](c2ccccc2)C1", "study-system": "USP19 (Homo sapiens (Human), UniProt O94966)", "IC50": "< 0.5 µM"}

Test item CN(C)C(=O)c1cn(CC2(O)CCN(C(=O)c3ncoc3-c3ccccc3)CC23CCCC3)c(=O)cc1-c1ccccc1 (stereo not shown) ; USP19 (Homo sapiens (Human), UniProt O94966); reported IC50 was 5 to 50 µM

Test item C[C@H](CC1CCCCC1)C(=O)N1CCC(O)(Cn2cc(C(=O)N(C)C)c(Cl)cc2=O)C2(CCCC2)C1 (stereo partly shown) ; USP19 (Homo sapiens (Human), UniProt O94966); reported IC50 was < 0.5 µM

Test item "O=C(N1CC[C@@](O)(Cn2cnc(-c3ccccc3)cc2=O)C2(CCCC2)C1)N1CCCN1c1ccccc1" ; USP19 (Homo sapiens (Human), UniProt O94966); reported IC50 was 0.5 to 5 µM

Test item "CN(C)C(=O)c1cn(C[C@]2(O)CCN(C(=O)[C@H](CO)CC3CCC3)CC2(C)C)c(=O)cc1-c1ccccc1" ; USP19 (Homo sapiens (Human), UniProt O94966); reported IC50 was < 0.5 µM

Test item COCC1CNCCN1C(=O)N1CCC(O)(Cn2cnc(-c3ccccc3)cc2=O)C2(CCCC2)C1 (stereo not shown) ; USP19 (Homo sapiens (Human), UniProt O94966); reported IC50 was 50 to 250 µM

---

Record: compiled IC50 on USP19 (Homo sapiens (Human)) from multiple reports.

{"molecule": "CN(Cc1ccco1)C(=O)N1CCC(O)(Cn2cnc(-c3ccccc3)cc2=O)C2(CCCC2)C1 (stereo not shown)", "value-observed": "50 to 250 µM"}
{"molecule": "CC1(CNC(=O)N2CCC(O)(Cn3cnc(-c4ccccc4)cc3=O)C3(CCCC3)C2)CC1 (stereo not shown)", "value-observed": "5 to 50 µM"}
{"molecule": "C[C@H](CC(F)(F)F)C(=O)N1CCC(O)(Cn2cnc3cc(Cl)ccc3c2=O)C2(CCCC2)C1 (stereo partly shown)", "value-observed": "5 to 50 µM"}
{"molecule": "C[C@H](CC(F)(F)F)C(=O)N1CCC(O)(Cn2ccc3ccc(F)cc3c2=O)C2(CCCC2)C1 (stereo partly shown)", "value-observed": "5 to 50 µM"}
{"molecule": "N#CCc1ccc(CNC(=O)N2CCC(O)(Cn3cnc(-c4ccccc4)cc3=O)C3(CCCC3)C2)cc1 (stereo not shown)", "value-observed": "5 to 50 µM"}

IC50 for "C[C@H](CC1CCCCC1)C(=O)N1CC[C@](O)(Cn2cc(C(=O)N3CCNCC3)c(-c3ccccc3)cc2=O)C(C)(C)C1" is 5 to 50 µM

---

Record: compiled IC50 on USP19 (Homo sapiens (Human), UniProt O94966) from multiple reports.

{"compound": "O=C(N1CCC(C(F)F)CC1)N1CCC(O)(Cn2cnc(-c3ccccc3)cc2=O)C2(CCCC2)C1 (stereo not shown)", "IC50": "5000 to 50000 nM"}

IC50 for C[C@H](CC1CCCCC1)C(=O)N1CCC(O)(Cn2cc(S(C)(=O)=O)c(-c3ccccc3)cc2=O)C2(CCCC2)C1 (stereo partly shown) is < 500 nM

IC50 for "C[C@H](CC1CCCCC1)C(=O)N1CC[C@@](O)(Cn2cc(C(=O)N3CCCC3)c(-c3ccccc3)cc2=O)C(C)(C)C1" is < 500 nM

IC50 for "CN(C)C(=O)c1cn(C[C@]2(O)CCN(C(=O)[C@H](CCO)CC3CCCCC3)CC2(C)C)c(=O)cc1-c1ccccc1" is < 500 nM

IC50 for CN(C)C(=O)c1cn(CC2(O)CCN(C(=O)c3cccn3Cc3ccccc3)CC23CCCC3)c(=O)cc1-c1ccccc1 (stereo not shown) is 5000 to 50000 nM

IC50 for O=C(N1CCC(O)(Cn2ccc(-c3ccccc3)cc2=O)C2(CCCC2)C1)N1CCNCC1c1cc(F)ccc1F (stereo not shown) is < 500 nM

IC50 for "C[C@H](CC1CCC1)C(=O)N1CC[C@@](O)(Cn2cc(C(=O)N3CCNCC3)c(-c3ccccc3)cc2=O)C2(CCCC2)C1" is < 500 nM

---

Record: compiled pIC50 on UniProt:O94966 from multiple reports.
pIC50: −log10 of the molar value.

Record excerpt, results attached:
{"compound": "C[C@H](CC(F)(F)F)C(=O)N1CCC(O)(CN2Cc3cnccc3C2=O)C2(CCCC2)C1 (stereo partly shown)", "pIC50": "3.60 to 4.30"}
{"compound": "COc1cccc(F)c1-c1cc(=O)n(C[C@]2(O)CCN(C(=O)N3CCNC[C@H]3c3ccccc3)CC23CCCC3)cn1", "pIC50": "> 6.30"}
{"compound": "C[C@H](CC(F)(F)F)C(=O)N1CC[C@@](O)(Cn2cc(C(=O)N3CCNCC3)c(-c3ccccc3)cc2=O)C2(CCCC2)C1", "pIC50": "> 6.30"}

Test item "Cc1cccc(F)c1-c1cc(=O)n(C[C@]2(O)CCN(C(=O)N3CCNC[C@H]3c3ccccc3)CC23CCCC3)cn1" ; UniProt:O94966; reported pIC50 was > 6.30

Test item CC1CC(=O)N(CC2(O)CCN(C(=O)[C@H](C)CC(F)(F)F)CC23CCCC3)CC(C)C1 (stereo partly shown) ; UniProt:O94966; reported pIC50 was 4.30 to 5.30

Test item CN(Cc1ccoc1)C(=O)N1CCC(O)(Cn2cnc(-c3ccccc3)cc2=O)C2(CCCC2)C1 (stereo not shown) ; UniProt:O94966; reported pIC50 was 5.30 to 6.30

Test item "CC(=O)Nc1ccccc1-c1cc(=O)n(CC2(O)CCN(C(=O)C[C@@H](C)c3ccccc3)CC2)cn1" ; UniProt:O94966; reported pIC50 was 3.60 to 4.30
